target.under.test: T1, peptide-6 (HSP65-derived peptide, GPKGRNVVLEKKWGAP) (Mycobacterium tuberculosis)
T1 construct: also called peptide-6 antigen; 15
T1 peptide: GPKGRNVVLEKKWGAP
method.description: ELISA, peptide-6 coated at 10 µg/ml, anti-human IgG kappa peroxidase
metric.name: binding result

INSERT INTO measurements (binder, metric_name, observed) VALUES
  ('humanized anti-peptide-6 antibody variant VH4/VK2 (antibody, V domains shown) VH: QVTLKESGPALVKPTQTLTLTCSFSGFSLSTSNMGVGWIRQPAGKGLEWLAHILWNDSKYYNPALKSRLTISKDTSKNQVVLTMTNMDPVDTATYYCARMGGYYGNYGYYAMDYWGQGTLVTVSS VL: QIVLTQSPATLSLSPGERATMSCTASSSVSSSYLHWYQQKPGKAPKLWIYSTSNLASGVPSRFSGSGSGTDYTLTISSLQPEDFATYYCHQYHRSPPTFGQGTKLEIK', 'binding result', 'binds');

The values you see were collected from patent US20120156201A1.
